Please respond with reported DC50 for every item in the list.
assay_system: VAV1 (Homo sapiens, UniProt P15498+Q96SW2)
Construct: A heterozygous VAV1 C-terminal HiBiT knock-in pool was generated at Monte Rosa Therapeutics from a clonal Jurkat cell; endogenous in cells; host or cells: Jurkat clone stably expressing LgBiT, homozygous GSPT1-G575N; heterozygous VAV1-HiBiT knock-in pool
assay_procedure: VAV1 degradation activity, VAV1-HiBiT knock-in Jurkat luminescence assay (Example A, Table 1)
Format: cell-based
setup_conditions: VAV1-HiBiT knock-in Jurkat cells, luminescence read at 6 and 24 hours; read-out: VAV1 DC50
Method: Cells were plated at 10,000 cells per well using Multiflo (BioTek) or Multi Drop Combi (Thermo Fisher) in 384-well white solid bottom plates (Corning, 3570BC) in 25 ul volume in RPMI 1640 media (Thermo Fischer, 22400105) containing 10% FBS (Corning, 35-075-CV), 1% Penicillin/Streptomycin (ThermoFisher Scientific, 15140-122), and 1% Endurazine (Nano-Glo Endurazine Live Cell Substrate (Promega, N2571)). Cells were incubated for ˜16 hours at 37° C., 5% CO2. […]

Sample O=C1CCC(c2cccc(-c3ccc(N4CCC4=O)cc3)c2Cl)C(=O)N1 (centres unmarked) [Compound 163] ; DC50 observed: ≥ 10000 nM

# DC50 of O=C1CCC(c2cccc(-c3ccc(-n4ccc(C(F)(F)F)cc4=O)cc3)c2Cl)C(=O)N1 (centres unmarked) [Compound 236] = 31.3 nM

The compound O=C1CCC(c2cccc(-c3ccc4c(c3)CCCO4)c2Cl)C(=O)N1 (centres unmarked) [Compound 381] showed DC50 equal to 35.9 nM

Notebook: O=C1CCC(c2cccc(-c3ccc(N4CCOC(F)(F)C4=O)cc3)c2Cl)C(=O)N1 (centres unmarked) [Compound 320] , DC50 read as 102 nM

The recorded DC50 for O=C1CCC(c2cccc(-c3cccc(CC4CCC(F)C(=O)N4)c3)c2Cl)C(=O)N1 (centres unmarked) [Compound 270] is 31.3 nM

Lookup result for Cn1ccc(COc2ccc(-c3cccc(C4CCC(=O)NC4=O)c3Cl)cn2)n1 (centres unmarked) [Compound 251] ; measured DC50: 354 nM

Reported DC50 for Cc1cnc(Cc2ccc(-c3cccc(C4CCC(=O)NC4=O)c3Cl)cc2)nc1 (centres unmarked) [Compound 420] was 2.43 nM

Note to self: DC50 recorded for Cc1ccc(=O)n(Cc2ccc(-c3cccc(C4CCC(=O)NC4=O)c3Cl)cc2)c1 (centres unmarked) [Compound 188] was 7.16 nM
